# Experimental System: T1, PUF4 RNA-binding domain (Saccharomyces cerevisiae, UniProt P25339 537-888)
# T1 sequence: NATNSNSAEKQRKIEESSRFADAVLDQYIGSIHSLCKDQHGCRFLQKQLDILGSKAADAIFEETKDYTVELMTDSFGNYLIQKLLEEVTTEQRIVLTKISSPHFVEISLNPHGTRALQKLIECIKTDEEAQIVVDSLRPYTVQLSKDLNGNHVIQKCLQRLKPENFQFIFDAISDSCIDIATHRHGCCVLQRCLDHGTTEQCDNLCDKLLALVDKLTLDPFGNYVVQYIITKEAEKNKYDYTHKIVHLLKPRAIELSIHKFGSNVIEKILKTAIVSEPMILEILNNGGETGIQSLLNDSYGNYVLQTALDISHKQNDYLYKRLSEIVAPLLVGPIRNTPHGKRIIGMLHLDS
# Assay: Mg; RNA-MaP; 20 mM Na-HEPES pH 7.4, 30 mM KOAc, 0.75 mM MgCl2, 0.1% Tween-20, 5% glycerol, 0.1 mg/mL BSA, 2 mM DTT; 25 C; 0.0125-409.6 nM protein
# Details: tags: N-His6-TEV cleaved; C-SNAP kept, Cy3B-labelled; label: tethered on chip by stalled RNA polymerase
Consider the following binders; for each one, report its pKd.
API: returns pKd as number; meaning -log10 of concentration in mol/L.

Given the binder Id_ii_S2_P3E.3_K3.2_C3.2_[C-2A]_[T-1A]_H3.2_A3.1_F3.1_T3.2_[A10T] (ssRNA) RNA: UUUGAUUAAUAUGAUAUCGUUCUUUCUAAUAUAUAUAUUUUCUUUCUCGAUAUCAUAUUAAUCUUU , what is its reported pKd?
6.14

Can you look up the measured pKd of Id_ii_S2_P3E.3_K3.2_C3.2_[C-2A]_[T-1G]_H3.2_A3.1_F3.1_T3.2_[T9C]_[A10C] (ssRNA) RNA: UUUGAUUAAUAUGAUAUCGUUCUUUCUAGUAUAUAUACCUUCUUUCUCGAUAUCAUAUUAAUCUUU for me?
5.72

These measurements were taken from paper PMC9352680.
